Experimental Target: EPHB2 (UniProt P29323)
Sequence (P29323 whole entry, looked up): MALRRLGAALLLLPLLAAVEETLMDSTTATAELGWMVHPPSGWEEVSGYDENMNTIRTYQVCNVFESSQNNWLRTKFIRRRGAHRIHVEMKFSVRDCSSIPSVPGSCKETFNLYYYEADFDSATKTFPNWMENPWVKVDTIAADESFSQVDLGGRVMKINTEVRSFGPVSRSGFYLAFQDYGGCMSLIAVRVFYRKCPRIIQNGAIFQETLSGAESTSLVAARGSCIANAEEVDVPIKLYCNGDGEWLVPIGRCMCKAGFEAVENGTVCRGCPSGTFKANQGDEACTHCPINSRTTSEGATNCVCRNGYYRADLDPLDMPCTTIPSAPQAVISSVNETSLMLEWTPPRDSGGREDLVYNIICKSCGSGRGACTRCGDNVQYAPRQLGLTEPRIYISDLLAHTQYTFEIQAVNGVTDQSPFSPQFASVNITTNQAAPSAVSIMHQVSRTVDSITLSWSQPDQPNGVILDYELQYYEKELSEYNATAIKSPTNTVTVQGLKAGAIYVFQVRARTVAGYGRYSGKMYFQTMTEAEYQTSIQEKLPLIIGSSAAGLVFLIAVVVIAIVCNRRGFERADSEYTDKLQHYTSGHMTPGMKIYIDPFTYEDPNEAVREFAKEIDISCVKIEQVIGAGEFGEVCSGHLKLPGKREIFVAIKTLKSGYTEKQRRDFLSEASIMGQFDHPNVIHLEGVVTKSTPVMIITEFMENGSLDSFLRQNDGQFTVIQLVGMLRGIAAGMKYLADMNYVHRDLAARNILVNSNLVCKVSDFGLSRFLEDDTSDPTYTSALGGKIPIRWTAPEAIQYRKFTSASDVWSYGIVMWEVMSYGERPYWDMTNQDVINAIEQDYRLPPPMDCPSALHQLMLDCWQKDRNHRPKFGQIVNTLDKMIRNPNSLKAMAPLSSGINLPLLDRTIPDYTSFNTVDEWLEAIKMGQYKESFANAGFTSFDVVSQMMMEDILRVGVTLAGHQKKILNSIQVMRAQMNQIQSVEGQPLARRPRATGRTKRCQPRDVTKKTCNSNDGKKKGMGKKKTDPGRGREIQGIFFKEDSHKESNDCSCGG
Assay Procedure: phosphorylation enrichment, bacterial display (enrichment ratio); higher = better substrate or ligand; peptides without Tyr show the background;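 note: 11-residue human phosphosite peptides and single-mutation variants displayed on the E. coli surface, counted by deep sequencing, each peptide's frequency after selection divided by its frequency in the unselected input library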;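 note: frequency after pTyr selection over input frequency; kinase dosed for 20-30% of maximal phosphorylation in three min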
Assign t to entries whose phosphorylation enrichment meets or exceeds 0.6; assign f to the rest.

- Construct Sequence: "PLRAFYLIARV [HLCS_Y635_D634Y_YF]"
  Experimental Target: "EPHB2 (UniProt P29323)"
  Assigned Class: "t"
- Construct Sequence: "GTTIHYNFMCN [TP53_Y234_C229G_YF]"
  Experimental Target: "EPHB2 (UniProt P29323)"
  Assigned Class: "t"
- Construct Sequence: "KWELRYMHSRV [ABCD1_Y281_G277W]"
  Experimental Target: "EPHB2 (UniProt P29323)"
  Assigned Class: "f"
- Construct Sequence: "SVVVPYEPSEV [TP53_Y220_P223S]"
  Experimental Target: "EPHB2 (UniProt P29323)"
  Assigned Class: "f"
- Construct Sequence: "NAPNSYGRRPT [CDKN2A_Y44_I49T]"
  Experimental Target: "EPHB2 (UniProt P29323)"
  Assigned Class: "f"
- Construct Sequence: "SSQTIYQRVEG [TFR2_Y23_V22I]"
  Experimental Target: "EPHB2 (UniProt P29323)"
  Assigned Class: "t"
- Construct Sequence: "TLNTNYHLPPS [MT-ATP8_Y33_M28T]"
  Experimental Target: "EPHB2 (UniProt P29323)"
  Assigned Class: "f"
- Construct Sequence: "GYQPEYGQPAG [SYP_Y278_D277E]"
  Experimental Target: "EPHB2 (UniProt P29323)"
  Assigned Class: "f"
- Construct Sequence: "QNWELYSEGLG [CNKSR1_Y665_R662W]"
  Experimental Target: "EPHB2 (UniProt P29323)"
  Assigned Class: "t"
- Construct Sequence: "SLAARYFNWVC [FLT4_Y1230_S1235C_YF]"
  Experimental Target: "EPHB2 (UniProt P29323)"
  Assigned Class: "t"
- Construct Sequence: "ADLTEYLSTHF [UQCRC1_Y219_YF]"
  Experimental Target: "EPHB2 (UniProt P29323)"
  Assigned Class: "t"
- Construct Sequence: "HCFAAYFQQGD [GPI_Y351_R347C]"
  Experimental Target: "EPHB2 (UniProt P29323)"
  Assigned Class: "t"
- Construct Sequence: "GFPVHYTDMSN [DNMT3B_Y815_V818M]"
  Experimental Target: "EPHB2 (UniProt P29323)"
  Assigned Class: "f"
- Construct Sequence: "PSGPTYRGAVP [ASAH1_Y43]"
  Experimental Target: "EPHB2 (UniProt P29323)"
  Assigned Class: "f"
- Construct Sequence: "PPVVNYEQDAR [FER_Y402_E404Q]"
  Experimental Target: "EPHB2 (UniProt P29323)"
  Assigned Class: "f"
- Construct Sequence: "RTIPDYTSFNT [EPHB2_Y912]"
  Experimental Target: "EPHB2 (UniProt P29323)"
  Assigned Class: "t"
- Construct Sequence: "KKHIPYSEHKS [CSNK1G2_Y206_R207S]"
  Experimental Target: "EPHB2 (UniProt P29323)"
  Assigned Class: "t"
- Construct Sequence: "GYQPDYGQPAG [SYP_Y278]"
  Experimental Target: "EPHB2 (UniProt P29323)"
  Assigned Class: "f"
- Construct Sequence: "TSYSGYRCHRH [NKAPL_Y94_Y96C]"
  Experimental Target: "EPHB2 (UniProt P29323)"
  Assigned Class: "f"
- Construct Sequence: "SLNEEYAKNKT [MSH2_Y563_T564A]"
  Experimental Target: "EPHB2 (UniProt P29323)"
  Assigned Class: "f"
- Construct Sequence: "RVFIKYLPEWT [PSEN1_Y240_L235R]"
  Experimental Target: "EPHB2 (UniProt P29323)"
  Assigned Class: "t"
- Construct Sequence: "ICFSDYVEVAD [PHACTR1_Y525_R521C]"
  Experimental Target: "EPHB2 (UniProt P29323)"
  Assigned Class: "t"
- Construct Sequence: "GFPVHYTDVSN [DNMT3B_Y815]"
  Experimental Target: "EPHB2 (UniProt P29323)"
  Assigned Class: "f"
- Construct Sequence: "GFWPRYVKVGS [NOG_Y172_R167G]"
  Experimental Target: "EPHB2 (UniProt P29323)"
  Assigned Class: "f"
- Construct Sequence: "KDFTKYVAFIE [KDM4B_Y31_N29T_YF]"
  Experimental Target: "EPHB2 (UniProt P29323)"
  Assigned Class: "t"
- Construct Sequence: "KRFAFYRDSPR [FOXE3_Y108_E103K]"
  Experimental Target: "EPHB2 (UniProt P29323)"
  Assigned Class: "f"
